- Test system: U2OS
- Test: Incucyte cell viability with U2OS; note: filed as whole numbers so only -1 and 0 and 1 occur
- Assay type: toxicity, cell-based
- Run Parameters: human, 12 h, 10 µM, compound concentration 10 uM, replicate number 1, timepoint 12 hours
Readout: Growth Rate
API doc: respond with a numeric literal and nothing else, no unit.

Returns the measured Growth Rate for the input compound. Input: S=C(NCCCc1c[nH]cn1)NCCCN(Cc1ccc(Cl)c(Cl)c1)c1ccc(Br)cn1
0

Given CCC[C@H](Oc1cc(C)c(-n2cc(C(F)(F)F)cn2)c(C)c1)c1ccc(C(=O)NCCC(=O)O)cc1 , state its recorded Growth Rate.
1

Please report the recorded Growth Rate for Cn1nc(C(=O)NCc2ccc(C(=O)O)cc2)cc1-c1ccc2[nH]ccc2c1 .
1

Given CCCCCNC(=O)NS(=O)(=O)c1cc([N+](=O)[O-])ccc1NC1CCCCC1 , state its recorded Growth Rate.
1

Could you share which Growth Rate value was measured for C=CC(=O)Nc1ccc2[nH]c(=O)n(C3CCN(C(=O)c4ccc(-c5nc6cc[nH]c(=O)c6cc5-c5ccccc5)cc4)CC3)c2c1 ?
1

Any idea what Growth Rate was measured for CC[C@H](CO)Nc1nc(NCc2ccccc2)c2ncn(C(C)C)c2n1 ?
0

May I ask what Growth Rate has been recorded for CCNc1cc(N[C@H]2CC[C@H](O)CC2)nc(Nc2ccc3c(ccn3Cc3ccccc3)c2)n1 ?
0

Look up Growth Rate for this compound: OCCn1cc(-c2cnc3nnn(Cc4ccc5ncccc5c4)c3n2)cn1
1

Given the entry O=c1ccn([C@@H]2O[C@H](COP(=O)([O-])OP(=O)([O-])O)[C@@H](O)[C@H]2O)c(=O)[nH]1.[Na+].[Na+] , report its measured Growth Rate.
1

Reported Growth Rate for COc1cc(N2CCC(N3CCN(C)CC3)CC2)ccc1Nc1ncc(Cl)c(Nc2ccccc2P(C)(C)=O)n1 : what is it?
0

Consider the compound shown here: C=C1/C(=C\C=C2/CCC[C@]3(C)[C@@H]([C@H](C)/C=C/[C@H](C)C(C)C)CC[C@@H]23)C[C@@H](O)C[C@@H]1O What is its recorded Growth Rate?
1

So what does the record say about Growth Rate for CCN1CCN(c2ccc(Nc3cc(N(C)C(=O)Nc4c(Cl)c(OC)cc(OC)c4Cl)ncn3)cc2)CC1 ?
0

Request the reported Growth Rate associated with Cn1cc(CCn2cnc(-c3cnn(C)c3)c2-c2ccc(C#N)cc2)cn1
1

Growth Rate for Cc1cn(-c2cc(NC(=O)c3ccc(C)c(Nc4nccc(-c5cccnc5)n4)c3)cc(C(F)(F)F)c2)cn1 ?
0

If you can, please state the reported Growth Rate value of O=C1O[C@]2(CC[C@H](C(=O)Nc3ccn(-c4ccccc4F)n3)CC2)c2cnccc21 .
1

Fill in the blank: the reported Growth Rate of CN1CCN(C(=O)C(C)(C)c2ccc(C(=O)Nc3cn4cc(-c5ccncc5)ccc4n3)cc2)CC1 is ____.
0

Give its Growth Rate value. Item: CC(C)(C)OC(=O)N1CCCC1CNC1CCC(c2cc(F)ccc2F)(S(=O)(=O)c2ccc(Cl)cc2)CC1 (stereo unspecified)
0

What value of measured Growth Rate is listed for CCCS(=O)(=O)c1nc(NC2CC2)cc(-c2ccc3c(ccn3C3CC(C)(C)NC(C)(C)C3)c2)n1 ?
0

I have this compound here, Cc1cc(C)c(S(=O)(=O)N(Cc2ccc(-c3cccc(S(C)(=O)=O)c3)cc2)Cc2ccc(C(F)(F)F)o2)c(C)c1 , and I need its recorded Growth Rate.
1

For the compound COc1cc2ncnc(Nc3ccc(F)c(Cl)c3)c2cc1NC(=O)/C=C/CN1CCCCC1 [DACOMITINIB ANHYDROUS] , what Growth Rate is on record?
0

Need Growth Rate, item N[C@@H](Cc1cc(I)c(Oc2ccc(O)c(I)c2)c(I)c1)C(=O)O
1

Would you mind telling me what Growth Rate value was observed for Cl.Oc1ccc2c3c1O[C@H]1c4[nH]c5c(c4C[C@@]4(O)[C@@H](C2)N(CC2CC2)CC[C@]314)C[C@@]1(O)[C@H]2Cc3ccc(O)c4c3[C@@]1(CCN2CC1CC1)[C@H]5O4 ?
1

What does the record list as Growth Rate for CN(C)C(=O)C(CCN1CCC(O)(c2ccc(Cl)cc2)CC1)(c1ccccc1)c1ccccc1.Cl [LOPERAMIDE HYDROCHLORIDE] ?
0

Need Growth Rate, item C#C[C@]1(O)CC[C@H]2[C@@H]3CCc4cc(O)ccc4[C@H]3CC[C@@]21C
0

# get_value(readout='Growth Rate', item= Cc1ccc2nc(CNCCCOc3ccccc3)cc(O)c2c1 )
0

Entry under review: O=C(Nc1nc2cccc(-c3ccc(CN4CCS(=O)(=O)CC4)cc3)n2n1)C1CC1 . Reported Growth Rate?
0

What value of measured Growth Rate is listed for O=C(Nc1cccnn1)N1CC(C/C=C/c2cncc(Oc3ccc(C(F)(F)F)cn3)n2)C1 ?
1

For the compound O=C1NCN(c2ccccc2)C12CCN(CC1COc3ccccc3O1)CC2 (stereo unspecified) , what Growth Rate is on record?
1

// lookup Growth Rate for CN1CCN(C(=O)C(C)(C)c2ccc(C(=O)Nc3cn4cc(-c5cc(C(C)(C)C)cc(C(C)(C)C)c5)ccc4n3)cc2)CC1
1

Fill in: Growth Rate of C=CCn1c(=O)c2cnc(Nc3ccc(N4CCN(C)CC4)cc3)nc2n1-c1cccc(C(C)(C)O)n1 is ___
0

Consider the compound shown here: CC(C)C[C@H](CO)Nc1nc(S[C@@H](C)c2ccccc2)nc2nc(N)sc12 What is its recorded Growth Rate?
0
